Data provenance: the supplement of paper PMC10724198

- System: Saccharomyces cerevisiae
- Assay: protein stability index of tFT-peptide fusion (C-terminal peptide) (PSI (0-1 scale)); higher = more stable (slower turnover)
- Measurement Setup: genetic background: wild type; temperature: 30 C
Rule: protein stability index under 0.7 gives -1, otherwise 1.

Known results for sequences:
Residue Sequence	Measurement Target	Group
KELESKLISKKR	Saccharomyces cerevisiae	1
LPSLASPRLIPS	Saccharomyces cerevisiae	-1
PVDGGAGPEVKG	Saccharomyces cerevisiae	-1

Next item in the queue.
Confirm if protein stability index reported for the sequence PLSPPVSLPLTP is 0.7 or above.
-1

* * *

- Test system: Saccharomyces cerevisiae
- Assay: protein stability index of tFT-peptide fusion (C-terminal peptide) (PSI (0-1 scale)); higher = more stable (slower turnover)
- Measurement Setup: genetic background: das1 deletion; temperature: 30 C
Here, each record is paired with measured protein stability index data.
# respond with the number and nothing more

What reported protein stability index corresponds to SQLLNLLQDLDT [ENV7 C-terminal 12 aa] on Saccharomyces cerevisiae?
0.696

* * *

Here, each record is paired with measured protein stability index data.
- System: Saccharomyces cerevisiae
- Assay: protein stability index of tFT-peptide fusion (C-terminal peptide) (PSI (0-1 scale)); higher = more stable (slower turnover)
- Measurement Setup: genetic background: wild type; temperature: 30 C
# respond with the number and nothing more

Known results for sequences:
Residue Sequence	Measured
PPPLPPSPLLPP	0.701
PPPPPPPLAPPL	0.685
CLILGLFSLIFL	0.482

// query protein stability index value for entry VLDCRDVSCHVL
0.661

// query protein stability index value for entry LVLLPSASPLLL
0.71

// query protein stability index value for entry CVWSGHIWDLLF
0.764

// query protein stability index value for entry VQLCQGWIGSES
0.676

// query protein stability index value for entry LSLSNILDYFYC
0.685

// query protein stability index value for entry PPPLPLPPITPT
0.53

// query protein stability index value for entry VFSPVLVCKMGE
0.698

// query protein stability index value for entry LQCGDWVETTGS
0.709

// query protein stability index value for entry SAMIKRIIGMHY
0.634

// query protein stability index value for entry RKGDRAQRWRDL
0.655

// query protein stability index value for entry HERPVVLYGCTS
0.637

// query protein stability index value for entry VAGGGGGCLVDC
0.646

* * *

- Test system: Saccharomyces cerevisiae
- Assay: protein stability index of tFT-peptide fusion (C-terminal peptide) (PSI (0-1 scale)); higher = more stable (slower turnover)
- Measurement Setup: genetic background: wild type; temperature: 30 C
Rule: protein stability index under 0.7 gives not met, otherwise met.

Known results for sequences:
Residue Sequence	Group
VLCFFWWWCRVC	not met
RGPFSGKCEPSM	not met
WWAERCLGGGRG	met
LRPPLASLRFSP	met
LSPSGATFWTPS	not met

Confirm if protein stability index reported for the sequence RAKGGFDPKCYS is 0.7 or above.
met

Confirm if protein stability index reported for the sequence LSARVFCFWFFS is 0.7 or above.
not met

Confirm if protein stability index reported for the sequence SPPCSPSALSHL is 0.7 or above.
met

Confirm if protein stability index reported for the sequence PPATPPRPLLPP is 0.7 or above.
not met

Confirm if protein stability index reported for the sequence IRSRSVTKYGWS is 0.7 or above.
not met

Confirm if protein stability index reported for the sequence VMVYLRSPLLDR is 0.7 or above.
met
